- assay-explanation: Cmax in C3H/J mouse plasma at 100 mg/kg, po by LC-MS/MS analysis
- Type: ADME, organism-based
- Design: dose 100 mg/kg, route po
endpoint-name: Cmax

Need Cmax, item `O=C(O)[C@@H]1CCN(c2ccc3c(=O)c4cccc(Cl)c4oc3c2)C1`
32200 ng/mL

====

For each entry below, report its solubility value.
- assay-explanation: Aqueous solubility of the compound
- Format: physicochemical
- experimental-setup: buffer

Examples with answers:
• O=C(Nc1ccc2c(=O)c3cccc(F)c3oc2c1)c1ccccc1Cl = < 1 µg/mL
• O=c1c2ccc(N3CCCCCC3)cc2oc2c(F)cccc12 = 73 µg/mL
• O=C(O)C1CCN(c2ccc3c(=O)c4cccc(Cl)c4oc3n2)C1 (stereo unspecified) = 410 µg/mL
• CN(C(=O)c1ccncc1)c1ccc2c(=O)c3cccc(F)c3oc2c1 = < 1 µg/mL
• O=C(O)C1CCN(c2ccc3c(=O)c4c(C(F)(F)F)ccc(Cl)c4oc3c2)C1 (stereo unspecified) = 100 µg/mL
• Fc1cccc2c1Oc1cc(N3CCCC3)ccc1C2 = < 1 µg/mL
• O=C(Nc1ccc2c(=O)c3cccc(F)c3oc2c1)c1ccccc1 = < 1 µg/mL
• CC1(C)CN(c2ccc3c(=O)c4cccc(Cl)c4oc3c2)CC1C(=O)O (stereo unspecified) = 294 µg/mL
• O=C(O)C1CCN(c2ccc3c(=O)c4c(Cl)ccc(Cl)c4oc3c2)C1 (stereo unspecified) = 32 µg/mL
• CN1CCN(c2ccc3c(=O)c4cccc(F)c4oc3c2)CC1 = 27 µg/mL

Batch request: solubility per item, same order as input.
1. CCNc1ccc2c(=O)c3cccc(F)c3oc2c1
2. O=C(Nc1ccc2c(=O)c3cccc(F)c3oc2c1)c1ccncc1
3. N#Cc1ccc(Cl)c2oc3cc(N4CCC(C(=O)O)C4)ccc3c(=O)c12 (stereo unspecified)
4. O=C(O)C1CCCN(c2ccc3c(=O)c4cccc(Cl)c4oc3c2)C1 (stereo unspecified)

1. < 1 µg/mL
2. < 1 µg/mL
3. > 443 µg/mL
4. < 474 µg/mL

Lab note: each compound below needs its solubility filled in.
1. N#Cc1cc2c(=O)c3cccc(Cl)c3oc2cc1N1CCC(C(=O)O)C1 (stereo unspecified)
2. O=C1CCCN1c1ccc2c(=O)c3cccc(F)c3oc2c1

1. > 430 µg/mL
2. < 1 µg/mL

Batch: solubility for all items listed.
1. O=c1c2ccc(N3CCCCC3)cc2oc2c(Cl)cccc12
2. O=c1c2ccc(N3CCOCC3)cc2oc2c(F)cccc12
3. O=C1Nc2ccc(N3CCC(C(=O)O)C3)cc2Oc2c(Cl)cccc21 (stereo unspecified)
4. O=c1c2ccc(N3CCCC3)cc2oc2c(Cl)cccc12
5. O=C(O)C1(C(F)(F)F)CCN(c2ccc3c(=O)c4cccc(Cl)c4oc3c2)C1 (stereo unspecified)
6. Cc1cc2c(=O)c3cccc(Cl)c3oc2cc1N1CCC(C(=O)O)C1 (stereo unspecified)

1. < 1 µg/mL
2. < 1 µg/mL
3. < 415 µg/mL
4. < 1 µg/mL
5. > 510 µg/mL
6. < 465 µg/mL

Dear colleague, could you please provide solubility for the compounds listed below?
1. O=C(O)[C@@H]1CCN(c2ccc3c(=O)c4cccc(Cl)c4oc3c2)C1
2. NC1CCN(c2ccc3c(=O)c4cccc(F)c4oc3c2)C1 (stereo unspecified)

> 452 µg/mL
23 µg/mL

State recorded solubility for all listed compounds.
1. O=C(Nc1ccc2c(=O)c3cccc(F)c3oc2c1)c1ccccc1F
2. O=C(O)CC1CCN(c2ccc3c(=O)c4cccc(Cl)c4oc3c2)C1 (stereo unspecified)

1. < 1 µg/mL
2. < 465 µg/mL

From: ChEMBL document CHEMBL5137099
